# ASSAY_COMMENT: Light stability of printed patches (Weather-Ometer, xenon lamp)
# Format: physicochemical
# Design: key: A: excellent; B: good; C: satisfactory; D: unsatisfactory
# EXPERIMENTAL_SETUP: B: HP Premium Plus (polymer based); 20 megalux hours
PROPERTY_NAME: Light Stability (Class) on Recording Sheet B

- CN(CCS(=O)(=O)[O-])c1nc(Nc2ccc(N=Nc3ccc4cc(S(=O)(=O)[O-])cc(S(=O)(=O)[O-])c4c3)cc2)nc(Nc2ccc(N=Nc3ccc4cc(S(=O)(=O)[O-])cc(S(=O)(=O)[O-])c4c3)cc2)n1.[Na+].[Na+].[Na+].[Na+].[Na+]: A
- CN(CCS(=O)(=O)[O-])c1nc(Nc2ccc(N=Nc3cc(S(=O)(=O)[O-])c4cccc(S(=O)(=O)[O-])c4c3)cc2)nc(Nc2ccc(N=Nc3cc(S(=O)(=O)[O-])c4cccc(S(=O)(=O)[O-])c4c3)cc2)n1.[Na+].[Na+].[Na+].[Na+].[Na+]: A
- Cc1cc(Nc2nc(NCCO)nc(Nc3ccc(/N=N/c4cc(S(=O)(=O)[O-])c5cccc(S(=O)(=O)[O-])c5c4)c(C)c3)n2)ccc1/N=N/c1cc(S(=O)(=O)[O-])c2cccc(S(=O)(=O)[O-])c2c1.[Na+].[Na+].[Na+].[Na+] [Dye No. II, Direct Yellow 86, reference compound]: D
- O=S(=O)([O-])CCNc1nc(Nc2ccc(N=Nc3ccc4cc(S(=O)(=O)[O-])cc(S(=O)(=O)[O-])c4c3)cc2)nc(Nc2ccc(N=Nc3ccc4cc(S(=O)(=O)[O-])cc(S(=O)(=O)[O-])c4c3)cc2)n1.[Na+].[Na+].[Na+].[Na+].[Na+]: A

---

# ASSAY_COMMENT: Light stability of printed patches (Weather-Ometer, xenon lamp)
# Type: physicochemical
# Set-up: key: A: excellent; B: good; C: satisfactory; D: unsatisfactory
# EXPERIMENTAL_SETUP: C: ILFORD Galerie Smooth Glossy (nanoporous); 20 megalux hours
PROPERTY_NAME: Light Stability (Class) on Recording Sheet C

• O=C([O-])c1cc(Nc2nc(Nc3ccc(N=Nc4cc(S(=O)(=O)[O-])c5cccc(S(=O)(=O)[O-])c5c4)cc3)nc(Nc3ccc(N=Nc4cc(S(=O)(=O)[O-])c5cccc(S(=O)(=O)[O-])c5c4)cc3)n2)cc(C(=O)[O-])c1.[Na+].[Na+].[Na+].[Na+].[Na+].[Na+] [Dye No. 18] = B
• CN(CCS(=O)(=O)[O-])c1nc(Nc2ccc(N=Nc3ccc4cc(S(=O)(=O)[O-])cc(S(=O)(=O)[O-])c4c3)cc2)nc(Nc2ccc(N=Nc3ccc4cc(S(=O)(=O)[O-])cc(S(=O)(=O)[O-])c4c3)cc2)n1.[Na+].[Na+].[Na+].[Na+].[Na+] [Dye No. 17] = A
• O=S(=O)([O-])CCNc1nc(Nc2ccc(N=Nc3ccc4cc(S(=O)(=O)[O-])cc(S(=O)(=O)[O-])c4c3)cc2)nc(Nc2ccc(N=Nc3ccc4cc(S(=O)(=O)[O-])cc(S(=O)(=O)[O-])c4c3)cc2)n1.[Na+].[Na+].[Na+].[Na+].[Na+] [Dye No. 16] = B
• CN(CCS(=O)(=O)[O-])c1nc(Nc2ccc(N=Nc3cc(S(=O)(=O)[O-])c4cccc(S(=O)(=O)[O-])c4c3)cc2)nc(Nc2ccc(N=Nc3cc(S(=O)(=O)[O-])c4cccc(S(=O)(=O)[O-])c4c3)cc2)n1.[Na+].[Na+].[Na+].[Na+].[Na+] [Dye No. 14] = A

Kindly note the recorded Light Stability (Class) on Recording Sheet C for O=S(=O)([O-])CCNc1nc(Nc2ccc(N=Nc3cc(S(=O)(=O)[O-])c4cccc(S(=O)(=O)[O-])c4c3)cc2)nc(Nc2ccc(N=Nc3cc(S(=O)(=O)[O-])c4cccc(S(=O)(=O)[O-])c4c3)cc2)n1.[Na+].[Na+].[Na+].[Na+].[Na+] [Dye No. 11] , which is A

Kindly note the recorded Light Stability (Class) on Recording Sheet C for O=S(=O)([O-])c1cc(/N=N/c2ccc(Nc3nc(NCCO)nc(Nc4ccc(/N=N/c5cc(S(=O)(=O)[O-])c6cccc(S(=O)(=O)[O-])c6c5)cc4)n3)cc2)cc2c(S(=O)(=O)[O-])cccc12.[Na+].[Na+].[Na+].[Na+] [Dye No. I, reference compound] , which is B

---

# ASSAY_COMMENT: Light stability of printed patches (Weather-Ometer, xenon lamp)
# Format: physicochemical
# Design: key: A: excellent; B: good; C: satisfactory; D: unsatisfactory
# EXPERIMENTAL_SETUP: G: CANON Photo Paper Pro PR-101 (nanoporous); 20 megalux hours
PROPERTY_NAME: Light Stability (Class) on Recording Sheet G

- O=S(=O)([O-])CCCSc1nc(Nc2ccc(N=Nc3cc(S(=O)(=O)[O-])c4cccc(S(=O)(=O)[O-])c4c3)cc2)nc(Nc2ccc(N=Nc3cc(S(=O)(=O)[O-])c4cccc(S(=O)(=O)[O-])c4c3)cc2)n1.[Na+].[Na+].[Na+].[Na+].[Na+] [Dye No. 10]: B
- O=C([O-])c1cc(Nc2nc(Nc3ccc(N=Nc4cc(S(=O)(=O)[O-])c5cccc(S(=O)(=O)[O-])c5c4)cc3)nc(Nc3ccc(N=Nc4cc(S(=O)(=O)[O-])c5cccc(S(=O)(=O)[O-])c5c4)cc3)n2)cc(C(=O)[O-])c1.[Na+].[Na+].[Na+].[Na+].[Na+].[Na+] [Dye No. 18]: B
- CN(CCS(=O)(=O)[O-])c1nc(Nc2ccc(N=Nc3cc(S(=O)(=O)[O-])c4cccc(S(=O)(=O)[O-])c4c3)cc2)nc(Nc2ccc(N=Nc3cc(S(=O)(=O)[O-])c4cccc(S(=O)(=O)[O-])c4c3)cc2)n1.[Na+].[Na+].[Na+].[Na+].[Na+] [Dye No. 14]: B

---

# ASSAY_COMMENT: Light stability of printed patches (Weather-Ometer, xenon lamp)
# Assay type: physicochemical
# Design: key: A: excellent; B: good; C: satisfactory; D: unsatisfactory
# EXPERIMENTAL_SETUP: D: ILFORD Printasia Premium Photo Glossy Paper (nanoporous); 20 megalux hours
PROPERTY_NAME: Light Stability (Class) on Recording Sheet D

- O=S(=O)([O-])CCCSc1nc(Nc2ccc(N=Nc3cc(S(=O)(=O)[O-])c4cccc(S(=O)(=O)[O-])c4c3)cc2)nc(Nc2ccc(N=Nc3cc(S(=O)(=O)[O-])c4cccc(S(=O)(=O)[O-])c4c3)cc2)n1.[Na+].[Na+].[Na+].[Na+].[Na+]: B
- CN(CCS(=O)(=O)[O-])c1nc(Nc2ccc(N=Nc3ccc4cc(S(=O)(=O)[O-])cc(S(=O)(=O)[O-])c4c3)cc2)nc(Nc2ccc(N=Nc3ccc4cc(S(=O)(=O)[O-])cc(S(=O)(=O)[O-])c4c3)cc2)n1.[Na+].[Na+].[Na+].[Na+].[Na+]: B

---

# ASSAY_COMMENT: Light stability of printed patches (Weather-Ometer, xenon lamp)
# Assay type: physicochemical
# Parameters: key: A: excellent; B: good; C: satisfactory; D: unsatisfactory
# EXPERIMENTAL_SETUP: C: ILFORD Galerie Smooth Glossy (nanoporous); 20 megalux hours
PROPERTY_NAME: Light Stability (Class) on Recording Sheet C

• Cc1cc(Nc2nc(NCCO)nc(Nc3ccc(/N=N/c4cc(S(=O)(=O)[O-])c5cccc(S(=O)(=O)[O-])c5c4)c(C)c3)n2)ccc1/N=N/c1cc(S(=O)(=O)[O-])c2cccc(S(=O)(=O)[O-])c2c1.[Na+].[Na+].[Na+].[Na+] [Dye No. II, Direct Yellow 86, reference compound] = B
• O=S(=O)([O-])c1cc(/N=N/c2ccc(Nc3nc(NCCCN4CCOCC4)nc(Nc4ccc(/N=N/c5cc(S(=O)(=O)[O-])c6cccc(S(=O)(=O)[O-])c6c5)cc4)n3)cc2)cc2c(S(=O)(=O)[O-])cccc12.[Na+].[Na+].[Na+].[Na+] [Dye No. IV, reference compound] = D
• O=S(=O)([O-])CCCSc1nc(Nc2ccc(N=Nc3ccc4cc(S(=O)(=O)[O-])cc(S(=O)(=O)[O-])c4c3)cc2)nc(Nc2ccc(N=Nc3ccc4cc(S(=O)(=O)[O-])cc(S(=O)(=O)[O-])c4c3)cc2)n1.[Na+].[Na+].[Na+].[Na+].[Na+] [Dye No. 15] = B
• O=S(=O)([O-])CCCSc1nc(Nc2ccc(N=Nc3cc(S(=O)(=O)[O-])c4cccc(S(=O)(=O)[O-])c4c3)cc2)nc(Nc2ccc(N=Nc3cc(S(=O)(=O)[O-])c4cccc(S(=O)(=O)[O-])c4c3)cc2)n1.[Na+].[Na+].[Na+].[Na+].[Na+] [Dye No. 10] = A
